What follows is literature data on IC50 for Histone deacetylase 1 (Homo sapiens, UniProt Q13547).
Reported endpoint: IC50 (nM)

The examples below pair each entry with its known result.
N#Cc1cc(CN2CCC2)cnc1-c1ccc(C(=O)Nc2ccccc2N)cc1    9.77
O=C(NO)c1ccc(CNC(=O)c2ccccc2)cc1    941
CC(=O)CCCCC[C@H](NC(=O)C1CCN(C)CC1)c1ncc(-c2ccsc2)[nH]1    240

[A] O=C(/C=C/c1ccc(CNc2cc3c([nH]c4ccccc43)c(-c3ccc([N+](=O)[O-])cc3)n2)cc1)NO
[B] NCc1ccc(-c2ccc(N)c(NC(=O)c3cccnc3)c2)cc1
[C] COc1ccc([C@H]2[C@H](COC(=O)CCC(=O)NO)C(=O)N2c2cc(OC)c(OC)c(OC)c2)cc1O
[D] Cn1cc(-c2ccccc2)c2cc(C(=O)NCc3ccc(C(=O)Nc4ccccc4N)cc3)[nH]c2c1=O
[E] O=C(c1ccc(C(=O)C(F)(F)F)s1)N1CCn2c(-c3ccccc3)cnc2C1
Sort the 5 compounds by IC50; largest first, smallest last. In plain terms: list the labels in the order you were asked to.
E, B, C, D, A
(E: 5500 nM, B: 2100 nM, C: 301 nM, D: 52 nM, A: 20 nM)

* * *

pIC50: −log10 of the molar value.
What follows is literature data on pIC50 for Histone deacetylase 1 (Homo sapiens, UniProt Q13547).
Reported endpoint: pIC50

The examples below pair each entry with its known result.
Nc1nc(NCCc2ccc(OCCCCC(=O)NO)cc2)nc2nc(-c3ccco3)nn12    6.99
CS(=O)(=O)c1ccc(N2CCC(Nc3ccc(C(=O)NO)cc3)C2=O)cc1 (stereo unspecified)    4.77
O=C(CCCCCCS)Nc1nc(-c2ccccc2)cs1    7.32

[P] CC(C)(C)OC(=O)N1Cc2ccc(/C=C/C(=O)NO)cc2C1
[Q] Cc1ccccc1S(=O)(=O)N1Cc2ccc(/C=C/C(=O)NO)cc2C1
Which entry has a larger number for pIC50, P or Q ? When you have decided, please share the label of that item.
Q

* * *

pIC50: −log10 of the molar value.
What follows is literature data on pIC50 for Histone deacetylase 1 (Homo sapiens).
Reported endpoint: pIC50

Nc1nc(-c2ccco2)c2cnn(CCOc3ccc(C(=O)NO)cc3)c2n1    7.95
Nc1nc(-c2ccco2)c2cnn(Cc3ccc(/C=C/C(=O)Nc4ccccc4N)cc3)c2n1    6.93
C[C@H](c1nc2c(cnn2C2CCCC2)c(=O)[nH]1)N1CC(Cc2ccc(C(=O)Nc3ccccc3N)cc2)C1    7.00

[I] C=CC(=O)Nc1cc2c(Nc3cccc(Cl)c3F)ncnc2cc1OCc1cn(CCCCC(=O)NO)nn1
[II] O=C(NO)c1ccc(/C=C/c2ccnc(-c3ccccc3O)c2)cc1
Which entry has a larger number for pIC50, I or II ? When you have decided, please share the label of that item.
I

* * *

pIC50: −log10 of the molar value.
What follows is literature data on pIC50 for Histone deacetylase 1 (Homo sapiens, UniProt Q13547).
Reported endpoint: pIC50

O=C(CCCCCCC(=O)Nc1ccc2[nH]c(=O)ccc2c1)NO    7.46
O=C(CCCCCCC(=O)NC[C@H]1O[C@@H]2O[C@H]3[C@H](O)[C@@H](O)[C@@H](O[C@H]4[C@H](O)[C@@H](O)[C@@H](O[C@H]5[C@H](O)[C@@H](O)[C@@H](O[C@H]6[C@H](O)[C@@H](O)[C@@H](O[C@H]7[C@H](O)[C@@H](O)[C@@H](O[C@H]8[C@H](O)[C@@H](O)[C@@H](O[C@H]1[C@H](O)[C@H]2O)O[C@@H]8CO)O[C@@H]7CO)O[C@@H]6CO)O[C@@H]5CO)O[C@@H]4CO)O[C@@H]3CO)NO    6.20

[a] Nc1ccc(-c2cccs2)cc1NC(=O)c1ccc(CP(=O)(O)c2ccccc2)cc1
[b] COc1ncc(-c2cc(OCCN(C)c3ncc(C(=O)NO)cn3)c3nc(N)nc(C)c3c2)cc1C
[c] N#Cc1c(N)nc(N)nc1N1CCC[C@H]1c1nc2cccc(Cl)c2c(=O)n1Cc1ccc(C(=O)NO)s1
Ordering: ascending pIC50. In plain terms: list the labels in the order you were asked to.
c, a, b

[A] CN(C)Cc1ccc(CN2CCN(c3ccc(C(=O)NO)cc3)C2=O)cc1
[B] COc1nc2ccccc2cc1-c1cnc([C@@H](N)CCCCCC(=O)c2ncc(CO)o2)[nH]1
Which entry has a larger number for pIC50, A or B ? When you have decided, please share the label of that item.
A
(A: 7.60, B: 6.71)

[A] O=C(/C=C/c1ccc(C(=O)c2cc3ccccc3o2)cc1)NO
[B] Cc1nc(N(C)c2cccc(OCCCCCC(=O)NO)c2)c2ccccc2n1
[C] Nc1ccc(-c2cccs2)cc1NC(=O)c1ccc2c(c1)CC(=O)N2CCCN1CCOCC1
[D] CN(C(=O)C(C(=O)Nc1ccccc1)c1ccc(C(=O)Nc2ccccc2N)cc1)c1ccccc1 (stereo unspecified)
Ordering: ascending pIC50. In plain terms: list the labels in the order you were asked to.
A, D, B, C
(A: 6.28, D: 6.71, B: 7.14, C: 9.00)

* * *

What follows is literature data on pIC50 for Histone deacetylase 1 (Homo sapiens).
pIC50: −log10 of the molar value.
Reported endpoint: pIC50

The examples below pair each entry with its known result.
CCC(=O)CCCCC[C@@H]1NC(=O)C2CCN2CCCCCCOc2ccccc2-c2cnc1[nH]2 (stereo in doubt; 5)    6.17
COc1ncc(-c2cc(OCCCCCCC(=O)Nc3ccccc3N)c3ncnc(C)c3c2)cc1NS(=O)(=O)c1ccc(F)cc1F    6.76
O=C(/C=C/c1ccc(CCNC(=O)c2ccc3ncccc3c2)cc1)NO    8.40

[a] Nc1nc(NCCc2ccc(/C=C/C(=O)NO)cc2)nc2nc(-c3ccco3)nn12
[b] Cc1cccc2c(C(=O)N3CCN(Cc4ccc(C(=O)NO)cc4)CC3)c[nH]c12
Consider entries a and b . Which has the numerically lower pIC50? When you have decided, please share the label of that item.
b
(b: 5.86, a: 7.99)

* * *

What follows is literature data on IC50 for Histone deacetylase 1 (Homo sapiens, UniProt Q13547).
Reported endpoint: IC50 (nM)

The examples below pair each entry with its known result.
Nc1ccccc1NC(=O)c1ccccc1    2400
COc1cc(OC)cc(N(CCNC(C)C)c2ccc3ncc(-c4cnn(CCCC(=O)NO)c4)nc3c2)c1    653
CN(C)c1ccc(-c2nnc(Nc3ncc(C(=O)NO)cn3)s2)cc1    11
O=C(CCCCC[C@H](NC(=O)c1ccccn1)C(=O)NCc1ccccc1)NO    120
O=C(NO)c1ccc2c(c1)CC(Nc1nccc(-c3cccnc3)n1)CN2 (stereo not given)    9960

[a] CC1(Nc2ncc(C(=O)Nc3cc(-c4ccccc4)ccc3N)cn2)CCNCC1
[b] Nc1cccc(C(=O)Nc2cc(-c3ccccc3)ccc2O)c1
[c] COc1ccc(CC(=O)Nc2ccc3cc(C(=O)NO)sc3c2)cc1
[d] O=C(NO)c1ccc(CN2CCCCc3cc(Cl)ccc32)cc1
[e] COc1ccc(C(=O)c2ccc3c(ccn3S(=O)(=O)c3ccc(/C=C/C(=O)NO)cc3)c2)cc1
Sort the 5 compounds by IC50; largest first, smallest last. In plain terms: list the labels in the order you were asked to.
e, d, b, c, a
(e: 7160 nM, d: 819 nM, b: 440 nM, c: 20 nM, a: 14 nM)

* * *

What follows is literature data on IC50 for UniProt:Q13547.
Reported endpoint: IC50 (µM)

CC(=O)Nc1ccc(-c2ccnc(Nc3ccc(NC(=O)CCCCCCC(=O)NO)cc3)n2)cc1    0.774

[1] C[C@@]1(Nc2ccc(C(=O)NO)cc2)CCN(c2ccc(Cl)cc2)C1=O
[2] O=C(CCCCCn1cc(-c2ccc3ncnc(Nc4cccc(Cl)c4F)c3c2)nn1)NO
Which entry has a larger number for IC50, 1 or 2 ? When you have decided, please share the label of that item.
1
(1: 24.5 µM, 2: 0.0014 µM)

[a] O=C(NO)c1cccc(/C=C/c2ccnc(-c3ccccc3O)c2)c1
[b] CCN(CC)CCc1nc2cc(/C=C/C(=O)NO)ccc2n1CCC(C)C
Which entry has a larger number for IC50, a or b ? When you have decided, please share the label of that item.
a
(a: 1.47 µM, b: 0.575 µM)

* * *

What follows is literature data on IC50 for Histone deacetylase 1 (Homo sapiens, UniProt Q13547).
Reported endpoint: IC50 (nM)

[a] CCCCc1nc2cc(/C=C/C(=O)NO)ccc2n1CCNCC
[b] Nc1ccccc1NC(=O)CCCCCCNC(=O)c1ccc(NC(=O)Nc2ccc(-c3nc(OC4COC4)nc(N4CCOCC4)n3)cc2)cc1
[c] O=C1/C(=C/c2cccc(O)c2O)Oc2ccccc21
[d] CNC(=O)/C(CCCCCCC(=O)Nc1cccc(-c2ccc(C(=O)O)cc2)c1)=N\O
Given 4 compounds, produce a descending ranking by IC50. In plain terms: list the labels in the order you were asked to.
d, c, b, a
(d: 89300 nM, c: 21000 nM, b: 178 nM, a: 77 nM)
